P2X purinoceptor 7 (Homo sapiens, UniProt Q99572) pIC50 data
pIC50: −log10 of the molar value.

| SMILES_DATA | pIC50 |
| --- | --- |
| Cc1ccccc1N1CCN(Cc2ccc(Cl)cc2Cl)C(=O)C1=O | 8.00 |
| Cc1ccc(-c2ccc(C)c(N3CCN(C(=O)c4cccc(C(F)(F)F)c4Cl)CC3=O)c2)cn1 | 7.40 |
| Cc1c(N2CCOCC2)cccc1N1CCN(Cc2ccc(F)cc2Cl)C(=O)C1=O | 7.50 |
| CCN1C(=O)CC[C@H]1C(=O)NCc1cccc(F)c1F | 6.40 |
| Cc1nn(CC(C)(C)C)c(C)c1CC(=O)NCc1ccc(F)cc1Cl | 7.00 |
| O=C(c1cccc(C(F)(F)F)c1Cl)N1CCN(c2cccc(N3CCOCC3)c2Cl)C(=O)C1 | 7.90 |
| CC(C)(C)CN1C(=O)CC[C@H]1C(=O)NCc1cccc(C(F)(F)F)c1Cl | 7.60 |
| O=C1C(=O)N(c2cc(Br)ccc2Cl)CCN1Cc1ccc(F)cc1Cl | 8.00 |
| Cc1ccc(-c2cccc(N3CCN(C(=O)c4cccc(C(F)(F)F)c4Cl)CC3=O)c2C)cn1 | 7.30 |
| CN1C(=O)CC[C@@H]1C(=O)NCc1cccc(Cl)c1Cl | 7.20 |
| O=C1CN(C(=O)c2cccc(C(F)(F)F)c2Cl)CCN1Cc1cccnc1 | 6.40 |
| Cc1nn(CCN2CCOCC2)c(C)c1CC(=O)NCc1ccc(F)cc1Cl | 6.60 |

###

Target sequence: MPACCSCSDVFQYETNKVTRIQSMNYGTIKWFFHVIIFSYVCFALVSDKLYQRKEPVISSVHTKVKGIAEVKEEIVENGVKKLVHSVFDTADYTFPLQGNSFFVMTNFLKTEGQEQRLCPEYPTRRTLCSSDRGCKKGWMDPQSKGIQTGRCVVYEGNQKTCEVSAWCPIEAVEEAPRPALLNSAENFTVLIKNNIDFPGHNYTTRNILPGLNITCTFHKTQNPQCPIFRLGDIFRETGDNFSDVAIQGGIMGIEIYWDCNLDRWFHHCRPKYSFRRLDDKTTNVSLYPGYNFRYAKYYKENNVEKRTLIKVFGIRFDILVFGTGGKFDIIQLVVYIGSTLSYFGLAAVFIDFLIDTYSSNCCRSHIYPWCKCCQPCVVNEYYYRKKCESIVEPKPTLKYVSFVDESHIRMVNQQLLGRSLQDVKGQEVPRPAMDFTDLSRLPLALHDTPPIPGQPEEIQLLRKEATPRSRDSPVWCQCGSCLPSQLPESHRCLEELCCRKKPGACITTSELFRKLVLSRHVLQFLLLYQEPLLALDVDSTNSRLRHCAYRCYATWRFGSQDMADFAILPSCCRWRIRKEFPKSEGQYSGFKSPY
# class assignment by measured IC50: low = under 0.03 µM, moderate = from 0.03 µM up to 0.1 µM, high = 0.1 µM and over

| MOLECULE | QUALITATIVE_LABEL |
| --- | --- |
| O=C(c1ccc(Cl)cc1C(F)(F)F)N1CCn2c(nnc2-c2cnccn2)C1 | low |
| CCN1C(=O)CC[C@@H]1C(=O)NCc1cccc(Cl)c1F | high |
| O=C1C(=O)N(c2cc(F)ccc2F)CCN1Cc1ccc(F)cc1Cl | high |
| CCN1C(=O)C(C)(C)C[C@H]1C(=O)NCc1cccc(C(F)(F)F)c1Cl | low |
| O=C(c1ccc(F)cc1Cl)N1CCn2c(nnc2-c2ccc(F)c(F)c2)C1 | moderate |
| O=C(NCc1ccc(Cl)cc1Cl)C1CCC(=O)N1C1CC1 (centres undefined) | low |
| COc1cccc(N2CCN(Cc3ccc(F)cc3Cl)C(=O)C2=O)c1C | low |
| Cc1nn(CCO)c(C)c1CC(=O)NCc1cccc(Cl)c1C | moderate |
| Cc1cccc(C)c1N1CCN(Cc2cccc(Cl)c2Cl)C(=O)C1=O | low |
| Cc1ncccc1N1C[C@@H](C(=O)NCc2ccc(F)cc2Cl)N(C)C1=O | moderate |
| Cc1c(Br)cccc1N1CCN(C(=O)c2cccc(C(F)(F)F)c2Cl)CC1=O | low |
| Cc1ccc(C(=O)N2CCn3c(nnc3-c3cnccn3)C2)c(C)c1 | high |
| CN1C[C@@H](C(=O)NCc2ccc(Cl)cc2Cl)N(CC(F)F)C1=O | low |
| Cn1nccc1CC(=O)NCc1cccc(C(F)(F)F)c1Cl | low |
| CC1=CC(=O)N(C2CC2)C1C(=O)NCc1ccc(Cl)cc1Cl (centres undefined) | high |
| Cc1ccccc1N1CCN(Cc2ccc(F)c(F)c2F)C(=O)C1=O | high |
| Cc1c(CC(=O)NCc2ccc(F)cc2Cl)c(C(C)C)nn1-c1ccccc1 | high |
| O=C(c1ccc(Cl)cc1F)N1CCN(c2ccc(F)cc2Cl)C(=O)C1 | moderate |
| CCN1C(=O)CC[C@H]1C(=O)NCc1ccc(F)c(F)c1F | high |
| CCN1C(=O)CC[C@H]1C(=O)NCc1cccc(C(F)(F)F)c1C#N | low |
| O=C1CN(C(=O)c2cccc(C(F)(F)F)c2Cl)CCN1Cc1ccccn1 | high |
| Cc1cccc(N2C[C@@H](C(=O)NCc3ccc(F)cc3Cl)N(C)C2=O)n1 | high |
| O=C(c1ccc(Cl)cc1Cl)N1CCn2c(nnc2-c2ccc(F)cc2)C1 | low |
| CCN1C(=O)CC[C@@H]1C(=O)NCc1ccc(F)c(F)c1Cl | high |
| Cc1cc(N2C[C@@H](C(=O)NCc3ccc(F)c(F)c3Cl)N(C)C2=O)ccn1 | moderate |
| Cc1ccc(N2C[C@@H](C(=O)NCc3ccc(Cl)cc3Cl)N(C)C2=O)nn1 | high |
| O=C(c1cccc(C(F)(F)F)c1Cl)N1CCn2cc(-c3ccccc3)nc2C1 | high |
| COc1ccc(C)c(N2CCN(Cc3ccc(F)cc3Cl)C(=O)C2=O)c1 | low |
| CN1C(=O)N(c2ccnc(F)c2)C[C@H]1C(=O)NCc1ccc(F)c(F)c1Cl | low |
| CN1C[C@@H](C(=O)NCc2ccc(F)c(C(F)(F)F)c2)N(C)C1=O | moderate |
| CN1C(=O)N(c2cncn2C)C[C@H]1C(=O)NCc1ccc(Cl)cc1Cl | low |
| CCc1ccccc1-n1cc(CC(=O)NCc2ccc(F)cc2Cl)cn1 | high |
| O=C(c1cccc(C(F)(F)F)c1Cl)N1CCn2c(nnc2-c2ccccc2O)C1 | low |
| O=C(c1ccc(Cl)cc1Cl)N1CCN(c2ccccc2Cl)C(=O)C1 | low |
| CN1C(=O)CC[C@H]1C(=O)NCc1ccc(F)c(F)c1Cl | moderate |
| CN1C[C@@H](C(=O)NCc2ccc(F)c(Cl)c2Cl)N(C)C1=O | low |
| CC(C)c1ccccc1N1CCN(C(=O)c2cccc(Cl)c2Cl)CC1=O | low |
| CCN1C(=O)CC[C@H]1C(=O)NCc1ccccc1Br | high |
| Cc1nn(-c2ccncc2)c(C)c1CC(=O)NCc1ccc(F)cc1Cl | moderate |

###

Target chain: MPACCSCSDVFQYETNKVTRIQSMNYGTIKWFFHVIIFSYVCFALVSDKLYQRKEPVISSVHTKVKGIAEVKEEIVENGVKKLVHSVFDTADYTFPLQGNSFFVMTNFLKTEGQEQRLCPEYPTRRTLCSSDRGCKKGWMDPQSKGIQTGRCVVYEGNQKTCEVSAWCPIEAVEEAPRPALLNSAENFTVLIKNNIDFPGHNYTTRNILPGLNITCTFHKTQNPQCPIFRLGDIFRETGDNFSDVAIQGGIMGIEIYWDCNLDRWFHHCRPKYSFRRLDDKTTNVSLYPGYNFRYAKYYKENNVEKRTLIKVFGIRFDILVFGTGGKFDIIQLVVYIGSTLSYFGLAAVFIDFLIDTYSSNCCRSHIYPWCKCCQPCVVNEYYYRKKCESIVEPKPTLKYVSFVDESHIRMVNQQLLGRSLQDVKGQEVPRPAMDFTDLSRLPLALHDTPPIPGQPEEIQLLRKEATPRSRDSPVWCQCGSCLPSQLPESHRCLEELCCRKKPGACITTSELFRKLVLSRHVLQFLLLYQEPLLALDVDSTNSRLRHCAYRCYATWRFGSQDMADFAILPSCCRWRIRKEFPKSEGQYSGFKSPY
IC50 values by entry

| MOLECULE | ENDPOINT_UNIT | IC50 |
| --- | --- | --- |
| CN1C(=O)N(c2ccccn2)C[C@H]1C(=O)NCc1ccc(F)cc1Cl | nM | 79.4 |
| O=C(c1cccc(C(F)(F)F)c1Cl)N1CCn2c(nc(C(F)(F)F)c2-c2ccccc2)C1 | nM | 50.1 |
| COc1ccc(-n2nc(C)c(CC(=O)NCc3ccc(F)cc3Cl)c2C)cn1 | nM | 251 |
| CC1CC(=O)N(C)[C@@H]1C(=O)NCc1cccc(C(F)(F)F)c1Cl (stereo not given in full) | nM | 25.1 |
| Cc1ncccc1N1CCN(Cc2ccc(F)cc2Cl)C(=O)C1=O | nM | 631 |
| O=C(Cc1cn(CCO)nc1C(F)(F)F)NCc1ccc(F)cc1Cl | nM | 398 |
| O=C(c1cccc(C(F)(F)F)c1Cl)N1CCN(c2cccc3ccccc23)C(=O)C1 | nM | 12.6 |
| CCN1CC(C(=O)NCc2ccc(Cl)cc2Cl)CC1=O (stereo not given) | nM | 126 |
| Cc1c(N2CCOCC2)cccc1N1CCN(C(=O)c2cccc(C(F)(F)F)c2Cl)CC1=O | nM | 12.6 |
| CN1C(=O)CC[C@@H]1C(=O)NCc1cccc(C(F)(F)F)c1Cl | nM | 15.8 |
